Experiment: Metabolic stability in human liver microsomes assessed as compound remaining at 5 umol/L after 60 mins relative to control
Assay type: ADME, Microsome
Details: read-out: Stability
quantity-name: remaining at 1 h, 5 µM
Write the figure, then the unit, nothing else.

Take a look at these entries with their results.
[[record]]
smiles_repr = "Cc1ncnc2c1c1occc1n2[C@@H]1O[C@H](CO)[C@@H](O)[C@H]1O"
test_value = "98%"

[[record]]
smiles_repr = "CSc1ncnc2c1c1c(ccn1C)n2[C@@H]1O[C@H](CO)[C@@H](O)[C@H]1O"
test_value = "97%"

[[record]]
smiles_repr = "CSc1ncnc2c1c1occc1n2[C@@H]1O[C@H](CO)[C@@H](O)[C@H]1O"
test_value = "98%"


# input for lookup
Req: Look up remaining at 1 h, 5 µM: Cc1ncnc2c1c1c(ccn1C)n2[C@@H]1O[C@H](CO)[C@@H](O)[C@H]1O
Resp: 97%

Data provenance is ChEMBL document CHEMBL4330056.
